Cited source for all entries: PubChem BioAssay (NCI)

Test system: A498 renal
RUN_DESCRIPTION: NCI-60 one-dose screen, 48 h (100 = growth as untreated, 0 = no growth, -100 = all killed)
EXPERIMENTAL_PARAMETERS: 10 µM unless noted
Compounds without any hit were thinned out: in the full panel of roughly 83,000, 20% have a hit.
ASSAY_READOUT: growth (%)
Unit % implied. Number only.

Below, 5 molecules whose answers are already recorded.
>>> numeric_value("COc1ccc(C2CC(c3ccc(Nc4nc(NCCO)nc(Nc5ccc(Cl)cc5)n4)cc3)=Nc3c(N)nc(N)nc3N2)cc1 (centres undefined)")
42.7
>>> numeric_value("COc1c([C@@H](CC(C)C)OC(C)=O)ccc2c1C(=O)OCc1cc(C)cc(O)c1O2")
61.5
>>> numeric_value("NS(=O)(=O)c1ccc(Nc2nc(N/N=C/c3ccc([N+](=O)[O-])cc3)nc(Nc3ccccc3)n2)cc1")
18.5
>>> numeric_value("Cc1csc(Nc2cccc(Nc3nc(C)cs3)c2)n1")
47.3
>>> numeric_value("N#Cc1c(-c2ccccc2)cc(-c2c[nH]c3ccccc23)nc1-c1c[nH]c2ccccc12")
98.7

Tested on A498 renal, the item COc1cc(/C=N/n2cnc3oc(-c4ccccc4)cc3c2=N)cc(CN2CCOCC2)c1O showed growth equal to 53.8

Tested on A498 renal, the item N/C(=N\c1nc2c(Cl)cccc2s1)C(Cl)(Cl)Cl showed growth equal to 29.9

====

Test system: NCI-H23 lung
RUN_DESCRIPTION: NCI-60 one-dose screen, 48 h (100 = growth as untreated, 0 = no growth, -100 = all killed)
EXPERIMENTAL_PARAMETERS: 10 µM unless noted
Compounds without any hit were thinned out: in the full panel of roughly 83,000, 20% have a hit.
ASSAY_READOUT: growth (%)
Unit % implied. Number only.

Below, 5 molecules whose answers are already recorded.
>>> numeric_value("C=CCn1c(SCC(=O)Nc2cccc(C(=O)/C=C/c3ccc(OC)c(OC)c3)c2)nc2ccccc2c1=O")
93.2
>>> numeric_value("Cc1ccc(Nc2ncnc3c2c(C)nn3-c2ccc([N+](=O)[O-])cc2)cc1")
77.3
>>> numeric_value("N/C(=N\\OC(=O)CSc1nc2ccccc2s1)c1ccc(Cl)cc1")
97.7
>>> numeric_value("N#Cc1c(-c2ccccc2)cc(-c2c[nH]c3ccccc23)nc1-c1c[nH]c2ccccc12")
95.6
>>> numeric_value("O=S(=O)(Nc1ccc2c(c1)OC(F)(F)O2)c1ccc(-c2cnc(C3CC3)o2)cc1")
55.2

// field: growth; key: Oc1ccc(CSc2nnc(-c3ccc(Br)cc3)n2-c2ccccc2)c2cccnc12 ; value = 38.2

// field: growth; key: NS(=O)(=O)Oc1ccc2nc(Nc3ccc(F)c(F)c3)ccc2c1 ; value = 96.3

// field: growth; key: COc1ccc(C2CC(c3ccc(Nc4nc(NCCO)nc(Nc5ccc(Cl)cc5)n4)cc3)=Nc3c(N)nc(N)nc3N2)cc1 (stereo unspecified) ; value = 57.8

// field: growth; key: O=C(O)CNS(=O)(=O)c1ccc(Oc2ccc(S(=O)(=O)NCC(=O)O)cc2)cc1 ; value = 101

// field: growth; key: CN1CCN(Cc2ccc(NC(=O)c3cncc(C#Cc4[nH]nc5ncncc45)c3)cc2C(F)(F)F)CC1 ; value = 57.1
